system: B16 cells; assay: Melanin-production test of B16 cells; assay type: cell-based, mouse; details: evaluated concentration 80 µM; culture for 5 days
recorded endpoint: log10 of Melanin levels (log10 of the value in µg/10^6 cells)

compound	log10 of Melanin levels
CCCCCC/C=C\CCCCCCCC(=O)OCC(O)COC(=O)CCCCCCC/C=C\CCCCCC	-1.00
CCCCCC/C=C\CCCCCCCC(=O)OCC(CO)OC(=O)CCCCCCC/C=C\CCCCCC (stereo not shown)	-1.00
CCCCCC/C=C/CCCCCCCC(=O)OC[C@H](COP(=O)([O-])OCC[N+](C)(C)C)OC(=O)CCCCCCC/C=C/CCCCCC	0.58
CC=CCCCCC(=O)O	0.67
CCCC/C=C\CCCCCCCC(=O)OCC(O)COC(=O)CCCCCCC/C=C\CCCC	0.08
CC=CC(=O)O	0.66
CCCCCCC=CCCCCCCCCC(=O)OCC(O)COC(=O)CCCCCCCCC=CCCCCCC (stereo not shown)	0.08
CCC=CCCCCCCCC(=O)OCC(CO)OC(=O)CCCCCCCC=CCC (stereo not shown)	0.60
CCC=CCCCCCCCCC(=O)O	0.48
CCCCC=CCCCCCCCCC(=O)OCC(O)COC(=O)CCCCCCCCC=CCCCC (stereo not shown)	-0.70
CCCC/C=C\CCCCCCCC(=O)OCC(COC(=O)CCCCCCC/C=C\CCCC)OC(=O)CCCCCCC/C=C\CCCC	0.18
CCCC/C=C\CCCCCCCC(=O)OCC(CO)OC(=O)CCCCCCC/C=C\CCCC (stereo not shown)	0.45
CCCCCC/C=C\CCCCCCCC(=O)OC(CO)CO	-1.00
CCCCCC/C=C\CCCCCCCC(=O)OC	-1.00
CCCCCCC=CCCCCCCCCC(=O)OC(CO)CO	-0.52
CCCCCCC=CCC=CCCCCC(=O)O	-1.00
CCCCC=CCCCCCCCCC(=O)OC	-1.00
CCCCC=CCCCCCCCCC(=O)O	-1.00
CCCCC=CCCCCCCCCC(=O)OCC(O)CO (stereo not shown)	-1.00
CCCC/C=C\CCCCCCCC(=O)OCC(O)CO (stereo not shown)	0.34
CCCC=CCCCCCC(=O)OC(CO)CO	0.59
CCC=CCC(=O)OC(CO)CO	0.63
CC=CCCCCC(=O)OCC(O)CO (stereo not shown)	0.65
CCCCCCC=CCCCCCCCCC(=O)OCC(COC(=O)CCCCCCCCC=CCCCCCC)OC(=O)CCCCCCCCC=CCCCCCC (stereo not shown)	0.00
CCCCCC/C=C\CCCCCCCC(=O)OC[C@H](COP(=O)([O-])OCC[N+](C)(C)C)OC(=O)CCCCCCC/C=C\CCCCCC	0.59
CCCCCC/C=C\CCCCCCCC(=O)OCC(O)CO (stereo not shown)	-1.00
CCCCC=CCCCCCCCCC(=O)OCC(CO)OC(=O)CCCCCCCCC=CCCCC (stereo not shown)	-1.00
CCC=CCCCCCCCC(=O)O	0.66
CCCCCCC=CCCCCCCCC(=O)O	-1.00
CCCCC=CCC=CCCCCC(=O)O	-0.52
CCC=CCCCCCCCC(=O)OCC(O)CO (stereo not shown)	0.62
CCC=CCC=CCCCCCC(=O)O	0.51
CCCCCCC=CCCCCCCCCC(=O)OC	0.30
CCCCC=CCCCCCCCC(=O)O	-0.52
CCC=CCC=CCCCCC(=O)O	0.64
CCCCCCC=CCCCCCCCCC(=O)OCC(O)CO (stereo not shown)	-0.40
CCCC=CCCCCCC(=O)O	0.67
